Assignment: determine reported Ki for the given compounds.
- target_of_assay: rat GABA A receptor α3β3γ2 (Rattus norvegicus, UniProt P18508+P20236)
- Construct: expressed in transfected cells; host or cells: SF9 insect cells
- experiment_summary: [3H]flumazenil competition binding, GABA A α3β3γ2
Numbers only, in nM.

Hi there! I need Ki for each item below, if you can.
1. CCOC(=O)c1ncn2c1Cn1cnnc1-c1cc(OC)ccc1-2
2. CCOC(=O)c1ncn2c1Cn1cnnc1-c1cc(Cl)ccc1-2
3. CCOC(=O)c1ncn2c1Cn1c(C)nnc1-c1cc(OC)ccc1-2

[39.2, 23.7, 482]

Given the entry Clc1ccc2c(c1)-c1nnc(Cc3ccccc3)n1Cc1c(-c3noc(C4CC4)n3)ncn1-2 , what Ki was observed with rat GABA A receptor α3β3γ2 (Rattus norvegicus, UniProt P18508+P20236)?
5.6

====

- target_of_assay: rat GABA A receptor α1β3γ2 (Rattus norvegicus, UniProt P18508+P62813)
- Construct: expressed in transfected cells; host or cells: SF9 insect cells
- experiment_summary: [3H]flumazenil competition binding, GABA A α1β3γ2
- Method: The affinity of compounds at GABA A receptor subtypes was measured by competition for [^3H]flumazenil (85 Ci/mmol; Amersham) binding to SF9 cells expressing rat receptors of composition α1β3γ2, α2β3γ2, α3β3γ2 and α5β3γ2. […] 10^−10−3×10^−6 M. Nonspecific binding was defined by 10^−5 M diazepam and typically represented less than 5% of the total binding. […] After drying, filter-retained radioactivity was detected by liquid scintillation counting. […]
Exercise: state measured Ki for each of the molecules provided.
One number for each entry, in nM.

Fill in Ki for each of the 6 molecules listed.
1. CCOC(=O)c1ncn2c1Cn1c(Cc3ccc(-c4ccccc4)cc3)nnc1-c1cc(OC)ccc1-2
2. CCOC(=O)c1ncn2c1Cn1cnnc1-c1cc(Cl)ccc1-2
3. CCOC(=O)c1ncn2c1Cn1c(CO)nnc1-c1cc(OC)ccc1-2
4. CCOC(=O)c1ncn2c1Cn1c(C)nnc1-c1cc(OC)ccc1-2
5. Clc1ccc2c(c1)-c1nnc(Cc3ccccc3)n1Cc1c(-c3noc(C4CC4)n3)ncn1-2
6. CCOC(=O)c1ncn2c1Cn1cnnc1-c1cc(OC)ccc1-2

64.6
34.9
95.3
481
12.5
30.6

====

- target_of_assay: rat GABA A receptor α1β3γ2 (Rattus norvegicus, UniProt P18508+P62813)
- Construct: expressed in transfected cells; host or cells: SF9 insect cells
- experiment_summary: [3H]flumazenil competition binding, GABA A α1β3γ2
- study_conditions: [3H]flumazenil 1 nM, SF9 cells expressing rat α1β3γ2, mean of two determinations; read-out: Ki[nM] ra1
- Experimental: The affinity of compounds at GABA A receptor subtypes was measured by competition for [^3H]flumazenil (85 Ci/mmol; Amersham) binding to SF9 cells expressing rat receptors of composition α1β3γ2, α2β3γ2, α3β3γ2 and α5β3γ2. […] 10^−10−3×10^−6 M. Nonspecific binding was defined by 10^−5 M diazepam and typically represented less than 5% of the total binding. […] After drying, filter-retained radioactivity was detected by liquid scintillation counting. […]
Kindly supply the reported Ki values for the records listed here.
Numbers only, in nM.

- molecule: "CCOC(=O)c1ncn2c1Cn1c(Cc3c[nH]c4ccccc34)nnc1-c1cc(Br)ccc1-2 [Example 47]"
  units_text: "nM"
  Ki: 694

Provide the reported Ki of each entry below, same order.
1. CCOC(=O)c1ncn2c1Cn1c(Cc3c[nH]c4c(OC)cccc34)nnc1-c1cc(OC)ccc1-2 [Example 37]
2. CCOC(=O)c1ncn2c1Cn1c(Cc3ccncc3)nnc1-c1cc(Cl)ccc1-2 [Example 69]
3. CCOC(=O)c1ncn2c1Cn1c(Cc3cccc(OC)c3)nnc1-c1cc(Br)ccc1-2 [Example 50]
4. Cc1ccc2c(c1)-c1nncn1Cc1c(-c3nc(C4CC4)no3)ncn1-2 [Example 6]

[296, 360, 1000, 408]

Where do the numbers come from? From patent US6743789B2.
